Every entry's value here was drawn from patent US20210330611A1.

system: primary rat microglia; assay: Cell toxicity (dead cells, size <150 μm2) in LPS assay; conditions: primary microglia HTS, LPS stimulation; decreased size (<150 μm^2) as marker of toxicity
Catalogue of compounds with associated LPS % cell toxicity
Please respond with the number in % and leave the unit unwritten.

Sample records with LPS % cell toxicity:
COc1ccc2cc(CCC(C)=O)ccc2c1 :: 0
Cc1c(N(C)CS(=O)(=O)[O-])c(=O)n(-c2ccccc2)n1C.[Na+] :: 36
CN1CCN2c3ncccc3Cc3ccccc3C2C1 (stereo not shown) [Mirtazapine, reference compound] :: 1
Cc1cc(-n2c(=O)[nH]c(=O)n(C)c2=O)ccc1Oc1ccc(SC(F)(F)F)cc1 [Toltrazuril, reference compound] :: 2

Q: Can you share its LPS % cell toxicity? I mean this compound: C=N[C@@H](C(=O)N[C@@H]1C(=O)N2[C@@H]1SC(C)(C)[C@@H]2C(=O)O)c1ccccc1 [Metampicillin sodium, reference compound]
Ans: 0

Q: Moving on to OCc1ccccc1O[C@@H]1O[C@H](CO)[C@@H](O)[C@H](O)[C@H]1O [Salicin, reference compound]
Ans: 1

Q: Now this one: CC1(C)O[C@@H]2C[C@H]3[C@@H]4CCC5=CC(=O)CC[C@]5(C)[C@@]4(F)[C@@H](O)C[C@]3(C)[C@]2(C(=O)CCl)O1 [Halcinonide]
Ans: 2
